Sourced from patent US6875743B1

target: VLA4 (Homo sapiens, UniProt P05556+P13612); construct: endogenous in cells; host or cells: Ramos cells; test: Inhibition of VLA4-dependent adhesion to BSA-CS1; type: cell-based; conditions: binding of BCECF-labelled Ramos cells to BSA-CS1 coated wells, 2 mM MnCl2; read-out: IC50
Sequence (P13612 34-1032): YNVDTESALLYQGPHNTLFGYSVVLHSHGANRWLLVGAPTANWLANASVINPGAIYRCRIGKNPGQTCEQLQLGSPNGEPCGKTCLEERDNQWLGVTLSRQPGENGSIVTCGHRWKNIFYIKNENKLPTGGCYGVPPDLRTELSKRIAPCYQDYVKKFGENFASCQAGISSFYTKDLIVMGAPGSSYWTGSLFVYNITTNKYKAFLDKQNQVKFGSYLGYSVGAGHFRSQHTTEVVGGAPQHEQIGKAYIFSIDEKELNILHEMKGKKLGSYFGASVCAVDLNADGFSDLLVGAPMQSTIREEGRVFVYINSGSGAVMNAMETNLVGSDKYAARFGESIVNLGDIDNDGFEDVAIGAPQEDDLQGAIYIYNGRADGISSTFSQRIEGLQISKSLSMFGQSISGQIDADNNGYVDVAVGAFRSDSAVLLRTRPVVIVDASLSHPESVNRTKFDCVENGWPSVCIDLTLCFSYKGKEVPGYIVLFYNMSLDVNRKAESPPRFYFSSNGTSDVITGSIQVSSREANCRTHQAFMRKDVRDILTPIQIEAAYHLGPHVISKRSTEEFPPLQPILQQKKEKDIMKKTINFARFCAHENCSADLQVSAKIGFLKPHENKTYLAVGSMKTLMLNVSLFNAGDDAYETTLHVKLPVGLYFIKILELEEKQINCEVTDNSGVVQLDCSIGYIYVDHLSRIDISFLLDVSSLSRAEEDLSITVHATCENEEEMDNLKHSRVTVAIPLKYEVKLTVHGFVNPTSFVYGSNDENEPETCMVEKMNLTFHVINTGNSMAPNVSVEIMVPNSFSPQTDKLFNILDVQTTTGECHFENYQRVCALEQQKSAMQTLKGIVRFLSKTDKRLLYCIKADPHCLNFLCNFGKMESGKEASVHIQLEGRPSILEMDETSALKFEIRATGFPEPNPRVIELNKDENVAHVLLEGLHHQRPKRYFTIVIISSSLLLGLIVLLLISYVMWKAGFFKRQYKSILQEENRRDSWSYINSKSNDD
Sequence (P05556 21-798): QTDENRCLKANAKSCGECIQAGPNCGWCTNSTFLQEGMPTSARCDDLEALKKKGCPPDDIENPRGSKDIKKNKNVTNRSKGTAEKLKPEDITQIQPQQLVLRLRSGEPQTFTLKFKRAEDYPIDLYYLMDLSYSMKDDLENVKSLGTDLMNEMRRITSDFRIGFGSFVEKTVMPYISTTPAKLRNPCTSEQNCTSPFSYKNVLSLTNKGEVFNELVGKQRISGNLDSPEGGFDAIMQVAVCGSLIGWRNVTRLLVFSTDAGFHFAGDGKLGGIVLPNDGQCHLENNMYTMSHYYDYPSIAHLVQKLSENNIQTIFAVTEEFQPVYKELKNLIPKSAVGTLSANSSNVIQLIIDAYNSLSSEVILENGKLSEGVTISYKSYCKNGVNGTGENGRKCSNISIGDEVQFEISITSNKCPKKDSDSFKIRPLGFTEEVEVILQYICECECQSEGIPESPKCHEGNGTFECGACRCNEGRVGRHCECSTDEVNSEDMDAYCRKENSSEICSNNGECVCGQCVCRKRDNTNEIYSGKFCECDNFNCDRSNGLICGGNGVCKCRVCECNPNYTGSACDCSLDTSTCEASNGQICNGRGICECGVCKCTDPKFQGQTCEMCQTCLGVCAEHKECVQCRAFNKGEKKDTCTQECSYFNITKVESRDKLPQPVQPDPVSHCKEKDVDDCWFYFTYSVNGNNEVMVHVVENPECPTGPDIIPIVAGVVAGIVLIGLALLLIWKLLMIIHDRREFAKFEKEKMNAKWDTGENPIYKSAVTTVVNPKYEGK
pIC50: −log10 of the molar value. Square brackets hold non-standard residues; d marks the D form. Peptide text beside a SMILES is read from it. * marks the point of attachment. Tic = O=C(O)[CH]1Cc2ccccc2CN1; Boc = CC(C)(C)OC(=O)*
measure: pIC50

Completed entries (count: 5):
CC(C)CC(NC(=O)C1Cc2ccccc2CN1)C(=O)NC(CC(=O)O)C(=O)NC(C(=O)N1CCCC1C(=O)O)C(C)C (stereo not drawn) [Compound 33] (H-[Tic]LDVP-OH; configuration not given here) = < 5.00
CC(C)CC(NC(=O)C(Cc1ccc(O)cc1)NC(=O)OC(C)(C)C)C(=O)NC(CC(=O)O)C(=O)NC(C(=O)O)C(C)C (stereo not drawn) [Compound 66] (Boc-YLDV-OH; configuration not given here) = < 5.00
CSCC[C@H](NC(=O)Cc1ccc(NC(=O)Nc2ccccc2C)cc1)C(=O)N[C@@H](CC(=O)O)C(=O)N[C@H](CCC(=O)O)C(N)=O = > 7.30
CC(=O)N[C@@H](Cc1ccccc1)C(=O)N[C@@H](CC(C)C)C(=O)N[C@@H](CC(=O)O)C(=O)N[C@H](C(=O)O)C(C)C [Compound 152] (Ac-FLDV-OH) = < 5.00
CSCC[C@H](NC(=O)Cc1ccc(NC(=O)Nc2ccccc2C)cc1)C(=O)N[C@@H](CC(=O)O)C(=O)N[C@H](C(N)=O)C(C)C = > 7.30

(Q) Note pIC50 for the compound shown: CC(C)C[C@H](NC(=O)c1ccc(C(C)C)cc1)C(=O)N[C@@H](CC(=O)O)C(=O)N[C@H](C(=O)O)C(C)C
(A) < 5.00

(Q) Return pIC50 (reported value) for this compound: CC(C)C[C@H](NC(=O)COc1ccc2ccccc2c1)C(=O)N[C@@H](CC(=O)O)C(=O)N[C@H](C(=O)O)C(C)C
(A) < 5.00

(Q) Name the recorded pIC50 of the compound listed here: Cc1ccccc1NC(=O)Nc1ccc(CC(=O)N[C@@H](CCC(=O)O)C(=O)N[C@@H](CC(=O)O)C(=O)N[C@H](CC(N)=O)C(N)=O)cc1
(A) > 7.30

---

target: VLA4 (Homo sapiens, UniProt P05556+P13612); construct: endogenous in cells; host or cells: Ramos cells; assay: Inhibition of VLA4-dependent adhesion to BSA-CS1; format: cell-based; conditions: binding of BCECF-labelled Ramos cells to BSA-CS1 coated wells, 2 mM MnCl2; read-out: IC50
Square brackets hold non-standard residues; d marks the D form. Peptide text beside a SMILES is read from it. Tic = O=C(O)[CH]1Cc2ccccc2CN1; Cha = N[CH](CC1CCCCC1)C(=O)O
Reported values of IC50 for individual entries

Cc1ccccc1NC(=O)Nc1ccc(CC(=O)N[C@@H](CCC(=O)O)C(=O)N[C@@H](CC(=O)O)C(=O)N[C@H](CCC(=O)O)C(N)=O)cc1 [Compound 271] = < 0.05 µM
CC(C)C[C@H](NC(=O)c1cc2ccccc2cn1)C(=O)NC(Cc1nnn[nH]1)C(=O)N[C@H](C(=O)O)C(C)C (stereo partly drawn) [Compound 10] = > 10 µM
CC(C)C[C@H](NC(=O)c1csc(-c2ccncc2)n1)C(=O)N[C@@H](CC(=O)O)C(=O)N[C@H](C(=O)O)C(C)C [Compound 376] = > 10 µM

(Q) For the molecule CC(C)C(NC(=O)C(CC(=O)O)NC(=O)C(CC1CCCCC1)NC(=O)C1Cc2ccccc2CN1)C(=O)O (stereo not drawn) [Compound 86] (H-[Tic][Cha]DV-OH; configuration not given here) , report IC50.
(A) > 10 µM

(Q) Quick one: give measured IC50 for Cc1ccccc1NC(=O)Nc1ccc(CC(=O)N[C@@H](CCC(=O)O)C(=O)N[C@@H](CC(=O)O)C(=O)N[C@@H](CCC(=O)O)C(N)=O)cc1 [Compound 267]
(A) < 0.05 µM

(Q) Note IC50 for the molecule shown: CC(C)CC(NC(=O)CCc1ccc(O)cc1)C(=O)NC(CC(=O)O)C(=O)NC(C(=O)N1CCCC1C(=O)O)C(C)C (stereo not drawn) [Compound 38]
(A) > 10 µM

---

biological target: VLA4 (Homo sapiens, UniProt P05556+P13612); construct: endogenous in cells; host or cells: Ramos cells; experiment: Inhibition of VLA4-dependent adhesion to BSA-CS1; format: cell-based; settings: binding of BCECF-labelled Ramos cells to BSA-CS1 coated wells, 2 mM MnCl2; read-out: IC50
pIC50: −log10 of the molar value. Numbered stars: 1 amine (or outer) side, 2 acyl side, 3 side chain; on linkers, the order of the positions; unused ones are H or OH. Square brackets hold non-standard residues; d marks the D form. Peptide text beside a SMILES is read from it. * marks the point of attachment. X5 = COc1cc(CC(=O)[*:2])ccc1N[*:1]; X1 = O=C(Cc1ccc(N[*:1])cc1)[*:2]; CO = O=C([*:1])[*:2]; NHPh = c1ccc(N*)cc1
measure: pIC50

Answered cases to consult:
COc1cc(CC(=O)NC(CCSC)C(=O)NC(CC(=O)O)C(=O)NC(C(=O)N2CCCC2C(=O)O)C(C)C)ccc1NC(=O)Nc1ccccc1 (centres unmarked) [Compound 2] ({NHPh-CO}-[X5]MDVP-OH; configuration not given here) = > 7.30
Cc1ccccc1NC(=O)Nc1ccc(CC(=O)NC(CC(C)C)C(=O)N2CN(Cc3ccc4c(c3)OCO4)C(=O)C[C@H]2C(=O)O)cc1 (mixture of isomers) = < 5.00
CC(C)C[C@@H](NC(=O)Cc1ccc(NC(=O)Nc2ccccc2)cc1)C(=O)N[C@H](CC(=O)O)C(=O)N[C@@H](C(=O)N1CCC[C@@H]1C(N)=O)C(C)C [Compound 212] ({NHPh-CO}-[X1][dL][dD][dV][dP]-NH2) = 5.00 to 7.30

(Q) Consider the molecule Cc1ccccc1NC(=O)Nc1ccc(CC(=O)N[C@H](CC(C)C)C(=O)N[C@@H](CC(=O)O)C(=O)N[C@H](C(N)=O)[C@@H](C)O)cc1 and give its recorded pIC50.
(A) > 7.30

(Q) Provide pIC50 value for the following molecule: CC(C)C[C@H](NC(=O)CCCCc1ccccc1)C(=O)N[C@@H](CC(=O)O)C(=O)N[C@H](C(=O)O)C(C)C
(A) < 5.00

---

molecular target: VLA4 (Homo sapiens, UniProt P05556+P13612); construct: endogenous in cells; host or cells: Ramos cells; experiment: Inhibition of VLA4-dependent adhesion to BSA-CS1; format: cell-based; conditions: binding of BCECF-labelled Ramos cells to BSA-CS1 coated wells, 2 mM MnCl2; read-out: IC50
Numbered stars: 1 amine (or outer) side, 2 acyl side, 3 side chain; on linkers, the order of the positions; unused ones are H or OH. Square brackets hold non-standard residues; d marks the D form. Peptide text beside a SMILES is read from it. * marks the point of attachment. X1 = O=C(Cc1ccc(N[*:1])cc1)[*:2]; NH(2-Me-phenyl) = Cc1ccccc1N*; CO = O=C([*:1])[*:2]; Ahx = NCCCCCC(=O)O
measure: IC50

Here are 2 compounds together with their reported answers.
Cc1ccccc1NC(=O)Nc1ccc(CC(=O)N[C@@H](CO)C(=O)N[C@@H](CC(=O)O)C(=O)N[C@@H](CC(C)C)C(N)=O)cc1 = < 50 nM
CCC(C)C(NC(=O)C(CC(=O)O)NC(=O)C(CC(C)C)NC(=O)C1CCc2ccccc2N1)C(=O)NC (stereo not drawn) = 50 to 10000 nM

(Q) # return recorded IC50 for entry Cc1ccccc1NC(=O)Nc1ccc(CC(=O)N[C@@H](CCCCNC(=O)CCCCCN)C(=O)N[C@@H](CC(=O)O)C(=O)N[C@H](C(=O)N2CCC[C@H]2C(=O)O)C(C)C)cc1 [Compound 202] ({NH(2-Me-phenyl)-CO}-[X1]K(Ahx)DVP-OH)
(A) 50 to 10000 nM

(Q) Indicate the recorded IC50 value for this compound: CCCCCCNC(=O)C(NC(=O)C(CC(=O)O)NC(=O)C(CC(C)C)NC(=O)CCc1ccc(O)cc1)C(C)C (stereo not drawn)
(A) > 10000 nM

(Q) Item Cc1ccccc1NC(=O)Nc1ccc(CC(=O)N2CCC[C@H]2C(=O)N[C@@H](CC(=O)O)C(=O)N[C@H](CCC(=O)O)C(N)=O)cc1 : provide IC50
(A) < 50 nM

(Q) Return the recorded IC50 value; entry: Cc1ccccc1NC(=O)Nc1ccc(CC(=O)N[C@@H](CC(C)C)C(=O)N[C@@H](CC(=O)O)C(=O)N[C@H](CO)C(N)=O)cc1
(A) < 50 nM

(Q) Report IC50 for Cc1ccccc1NC(=O)Nc1ccc(CC(=O)N[C@@H](CCC(=O)O)C(=O)N[C@@H](CC(=O)O)C(=O)N[C@H](CO)C(N)=O)cc1
(A) < 50 nM

(Q) For CC(C)CC(NC(=O)c1cc2ccccc2cn1)C(=O)NC(CC(=O)O)C(=O)NCC1CCCCC1 (stereo not drawn) , write its IC50.
(A) > 10000 nM

(Q) Please supply the value of reported IC50 for the item Cc1ccccc1NC(=O)Nc1ccc(CC(=O)NC(CC(C)C)C(=O)NC(CC(=O)O)C(=O)NC(C(=O)N2CCOCC2)C(C)C)cc1 (stereo not drawn)
(A) < 50 nM

(Q) Output measured IC50 for this item: Cc1ccccc1NC(=O)Nc1ccc(CC(=O)N2CCC[C@H]2C(=O)N[C@@H](CC(=O)O)C(=O)N[C@@H](CC(C)C)C(N)=O)cc1
(A) < 50 nM

(Q) Return reported IC50. Input compound: Cc1ccccc1NC(=O)Nc1ccc(CC(=O)N[C@H](C(=O)N[C@@H](CC(=O)O)C(=O)N[C@@H](CC(=O)O)C(N)=O)[C@@H](C)O)cc1
(A) < 50 nM

(Q) Please indicate IC50 recorded for COC(=O)[C@@H](NC(=O)[C@H](CC(=O)O)N1CCC(NC(=O)CCc2ccc(O)cc2)C1=O)C(C)C (stereo partly drawn)
(A) > 10000 nM
